Just for reference, the nanobody polyreactivity screen of Harvey et al. (2022) is where these values come from.

Assay: yeast display, Sf9 membrane polyspecificity reagent, FACS + sequencing; frameworks hold sequencing errors
RESULT_TYPE: polyreactivity (PSR sort gate)

Reference set, count: 8
SEQUENCE_DATA	polyreactivity (PSR sort gate)
QVQLVESGGGLVQAGGSLRISCAASGRIFSGNAMGWYRQAPGKERELVAAISSGGSTYYADSVKGRFTISRYNAMNTVFLQMNILKPEDTAVYYCKKSRGRKWRGNYSVVKLLMGYWGQGSQVTVSS	low polyreactivity
QVQLVESGGGLVQAGGSLRLSCAASGSTFVNYAMVWYRQAPGKERELVAAITRGGYTYYADSVKGRFTISRDNAKNTVYLEMNSLKPEDTAFYYCNAAVSYPKYPYVSPGVPSYDYWGQGTQVSVSS	low polyreactivity
QVQLVESGGGLVQAGGSLRLSCAASGSIFYYYAMGWYRQAPGKERELVASITSGGRTYYADSVKGRFTISRDNAKNTVYFQMNSLKPEDTAVYYCAAVYGGLTLTRNYYWGQGTQVTVSS	high polyreactivity
QVQLVESGGGLVQAGGSLRLSCAASGSTFYYNDMGWYRQAPGKERELVAAIRTSGSTNYADSVKGRFTISRDNAKNTVYLQMNSLKPEDTAVYYCNAVVRHWFQGWYGRGDDYWGQGTQVTVSS	low polyreactivity
QVQLVESGGGLVQAGGSLRLSCAASGNIFPRYAMGWYRQAPGKERELVARISSGGSTDYADSVKGRFTISRDNAKNTVYLQMNSLKPEDTAVYYCAAEYYSQTVNYRRVVGYGYWGQGTQVTVSS	high polyreactivity
QVQLVESGGGLVQAGGSLRLSCAASGIIFVYNAMGWYRQAPGKERELVAGISFIGDSTYYADSVKGRFTISRDNAKNTVYLQMNSLKPEDTAVYYCAADYYLPYWFFVGYDYWGQGTQVTVSS	low polyreactivity
QVQLVESGGGLVQAGGSLRLRGAASGSTFIFNVRGWYRQAPGKERELVAVISWSGGSTYYADSVKGRFTISRDNAKNTVYLQMNSLKPEDTAVYYCARDQTFGPSPYDWYYYPGYDYWGQGTQVTVSS	low polyreactivity
QVQLVESGGGLVQAGGSLRLSCAASGRTFVPYAMGWYRQAPGKERELVAAINSGTRTYADSVKGRFTISRDNAKNTVYLQMNSLKPEDTAVYYCARRGYYYDYWGQGTQVTVSS	high polyreactivity

// for each sequence below, give its polyreactivity (PSR sort gate)
1. QVQLVESGGGLVQAGGSLRLSCADSGRTLSVYAMGWYRQAPGKESELVAAITWRGGSTYYADSVKGRFTISRDNAKNTVYLQMNSLKPEDTAVYYCAAEDYTYNGGGFEYWGQGTQVTVAS
2. QVQLVESVGGLVQAGGSLSLTCAASARTLNIYAMGWNRAAPGKERELVAAISKRGGTTYYADSVKGRFTISRDNAKNTVYLQMNSLKPEDTAVYYCNAAVRGVGELDYWGQGTQVTVSS
3. QVQLVESGGGLVQAGGSLRLSCAASGRTIEWYAMGWYRQAPGKEREFVARISGIGGSTYYADSVKGRFTISRDKAENTVYLQMNSLKPEDTAVYYCAAVSYFGYYYWGQGTQVTVSS

Response given:
["low polyreactivity", "high polyreactivity", "high polyreactivity"]

###

Test: yeast display, Sf9 membrane polyspecificity reagent, FACS + sequencing; frameworks hold sequencing errors
RESULT_TYPE: polyreactivity (PSR sort gate)

SEQUENCE_DATA	RESULT_TYPE	OBSERVED_RESULT
QVQLVESGGGLVQAGGSLLLSCAASRSISYAYAMGWYRQAHGKERELVAAISWSDGSTYYADSVKGRFTISRDNAKNTVYLQMNSLKPEDTAVYYCAADYGWHYGDWYDYWGQGTQVTVSS	polyreactivity (PSR sort gate)	low polyreactivity
QVQLVESGGGLVQAGGSLRLSCAASGRTFSGNTMGWYRQAPGKERELVAAITGRGGSTYYADSVKGRFTISRDNAKNTVYLQMNSLKPEDTAVYYCAALRYTFAGRFDYWGQGTQVTVSS	polyreactivity (PSR sort gate)	high polyreactivity
QVQLVESWGGIVQAGGSLRLSCAASGSTFHDYAMGWYRQAPGKERELVAAISRRASRTYYADSVKGRFTISRDNAKNTDFLQMNSLKPEDTAVYDCNTDQSQKTVVYDYWGQGTQVTVSS	polyreactivity (PSR sort gate)	high polyreactivity
QVQLVESGGGLLQAGGSLRLSCAASGTIFAYYAMGWYRPAPEKERELVARITYSTDRTYYADSVKGRFTISRDNAKNTVYLQMNRLKPEDTAVYYCAVETWWGFKRYKFDYWGLGTQVTVSS	polyreactivity (PSR sort gate)	low polyreactivity

Challenge: // query polyreactivity (PSR sort gate) value for entry QVQLVESGGGLDQAGGSLPLSCAASGLTFSSYAMGWYRQAPGKESELVATITSSGGDNTNYADSVKGRFTISRDNAKNTVYLQMNSLKPEDTAVYYCNKEGQQSYRWRMDYWGQGTQVTVSS
Response given: low polyreactivity
